List of inhibition at 100 µg/mL values.
# System Tested: Tyrosinase (Sigma T3824) (Agaricus bisporus, UniProt C7FF04)
# Construct: purchased Sigma T3824
# Sequence (C7FF04 1-392 limits assumed): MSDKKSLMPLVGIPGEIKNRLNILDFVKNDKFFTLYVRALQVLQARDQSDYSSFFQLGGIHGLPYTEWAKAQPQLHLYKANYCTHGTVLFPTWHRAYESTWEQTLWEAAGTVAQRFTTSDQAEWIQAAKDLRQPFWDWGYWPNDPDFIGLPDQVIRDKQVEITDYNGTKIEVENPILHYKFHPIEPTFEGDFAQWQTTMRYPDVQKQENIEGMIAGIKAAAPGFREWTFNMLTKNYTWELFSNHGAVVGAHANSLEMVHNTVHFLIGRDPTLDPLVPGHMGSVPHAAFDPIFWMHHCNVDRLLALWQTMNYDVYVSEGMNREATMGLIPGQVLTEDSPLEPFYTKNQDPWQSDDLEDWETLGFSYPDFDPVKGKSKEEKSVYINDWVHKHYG
# Protocol: Tyrosinase inhibition test
# Format: biochemical
# Experimental Parameters: concentration of 100 μg/ml; L-Dopa substrate; read-out: Tyrosinase inhibiting rate (%) (100 μg/ml)
Entry rule: numbers only, all in %.

The examples below pair each entry with its known result.
# Molecule, inhibition at 100 µg/mL (%)
rows = [
    ("O=C(/C=C/c1ccc(O)c(O)c1)NCCCCN(CCCNC(=O)/C=C/c1ccc(O)c(O)c1)C(=O)/C=C/c1ccc(O)c(O)c1 [Compound 4]", 62.2),
    ("O=C(/C=C/c1ccccc1O)NCCCCN(CCCNC(=O)/C=C/c1ccccc1O)C(=O)/C=C/c1ccccc1O [Compound 3]", 10.4),
]

Attention now turns to another entry.
Q: # get_value(readout= inhibition at 100 µg/mL, system= Tyrosinase (Sigma T3824) (Agaricus bisporus, UniProt C7FF04)) for COc1cc(/C=C/C(=O)NCCCCN(CCCNC(=O)/C=C/c2ccc(O)c(OC)c2)C(=O)/C=C/c2ccc(O)c(OC)c2)ccc1O [Compound 2]
Result: 15
